molecular target: Recombinant STAT6 protein (STAT6(W123-T658)) (Homo sapiens, UniProt P42226); construct: Recombinant STAT6 protein (STAT6(W123-T658)); assay: STAT6 Fluorescence Polarization (FP) Assay; details: STAT6(W123-T658) 250 nM, probe 5-FAM-ApYKPFQDLI-NH2 2 nM, 45-minute incubation
attribute measured: IC50

Use the examples below as a reference point.
CC(=O)N1CC[C@H]2CC[C@@H](C(=O)Nc3ccc(-c4ccccc4)cc3)N2C(=O)[C@@H](NC(=O)c2cc3cc(C(F)(F)P(=O)(O)O)c(F)cc3s2)C1 [Compound 46] : 300 to 3000 nM
N#CC1CN(C(=O)C2CCC3CCS(=N)(=O)CC(NC(=O)c4cc5cc(C(F)(F)P(=O)(O)O)ccc5s4)C(=O)N32)CC1c1ccccc1 (single isomer, unassigned) [Compound 7] : 300 to 3000 nM

Record summary for CC(=O)N1CC[C@H]2CC[C@@H](C(=O)N3Cc4cnn(-c5ncccn5)c4C3)N2C(=O)[C@@H](NC(=O)c2cc3cc(C(F)(F)P(=O)(O)O)ccc3s2)C1 [Compound 87] : reported IC50 = 300 to 3000 nM

---

target: Recombinant STAT3 protein (STAT3(G127-I722)) (Homo sapiens); construct: Recombinant STAT3 protein (STAT3(G127-I722)); experiment: STAT3 Fluorescence Polarization (FP) Assay; settings: STAT3(G127-I722) 25 nM, probe 5-FAM-GpYLPQTV-NH2 2 nM, 45-minute incubation
Sequence (P40763 127-722): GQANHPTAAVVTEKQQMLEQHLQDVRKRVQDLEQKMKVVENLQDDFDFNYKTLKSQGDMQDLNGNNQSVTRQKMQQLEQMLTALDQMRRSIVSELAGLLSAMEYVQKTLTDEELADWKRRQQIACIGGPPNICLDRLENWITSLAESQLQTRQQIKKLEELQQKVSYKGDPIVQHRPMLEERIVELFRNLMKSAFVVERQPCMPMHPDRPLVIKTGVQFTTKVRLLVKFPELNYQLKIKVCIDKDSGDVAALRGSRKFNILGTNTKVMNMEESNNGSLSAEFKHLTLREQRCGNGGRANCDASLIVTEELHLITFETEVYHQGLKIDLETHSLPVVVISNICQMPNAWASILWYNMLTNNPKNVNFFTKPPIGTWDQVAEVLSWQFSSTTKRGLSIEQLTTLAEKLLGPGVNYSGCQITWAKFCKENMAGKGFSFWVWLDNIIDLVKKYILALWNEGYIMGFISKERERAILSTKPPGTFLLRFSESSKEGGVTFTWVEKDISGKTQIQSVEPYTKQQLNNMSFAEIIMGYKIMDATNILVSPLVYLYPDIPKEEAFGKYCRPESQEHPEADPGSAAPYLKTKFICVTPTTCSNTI
attribute measured: IC50

Use the examples below as a reference point.
C[C@@H](C(=O)N1CC[C@H]2CC[C@@H](C(=O)N(C)c3ccccc3)N2C(=O)[C@@H](NC(=O)c2cc3cc(C(F)(F)P(=O)(O)O)ccc3[nH]2)C1)c1ccccc1 [Compound 217] : > 10000 nM
CC(=O)N1CC[C@H]2CC[C@@H](C(=O)N(C)c3ccc(C(C)(C)C)cc3)N2C(=O)[C@@H](NC(=O)c2cc3cc(C(F)(F)P(=O)(O)O)ccc3[nH]2)C1 [Compound 136] : 1000 to 10000 nM

Record summary for CC(=O)N1CC[C@H]2CC[C@@H](C(=O)N3CC[C@H](C(=O)N4CCCCC4)C3)N2C(=O)[C@@H](NC(=O)c2cc3cc(C(F)(F)P(=O)(O)O)ccc3s2)C1 [Compound 193] : reported IC50 = 100 to 1000 nM

Record summary for O=C(N[C@H]1CSCC[C@H]2CC[C@@H](C(=O)N3CC(c4cccnc4)C3)N2C1=O)c1cc2cc(C(F)(F)P(=O)(O)O)ccc2s1 [Compound 405] : reported IC50 = ≤ 100 nM

Record summary for CC(=O)N1CC[C@H]2CC[C@@H](C(=O)N(C)c3ccccc3)N2C(=O)[C@@H](NC(=O)/C=C(\C)c2cccc(C(F)(F)P(=O)(O)O)c2)C1 [Compound 50] : reported IC50 = > 10000 nM

Record summary for CC(=O)N1CC[C@H]2CC[C@@H](C(=O)N3C[C@H](c4ccccc4)[C@@H](C#N)C3)N2C(=O)[C@@H](NC(=O)c2cc3cc(C(F)(F)P(=O)(O)O)ccc3[nH]2)C1 (single isomer, unassigned) [Compound 138] : reported IC50 = 1000 to 10000 nM

Record summary for CC(=O)N1CC[C@H]2CC[C@@H](C(=O)N3C[C@H](c4ccccc4)[C@@H](O)C3)N2C(=O)[C@@H](NC(=O)c2cc3cc(C(F)(F)P(=O)(O)O)ccc3s2)C1 (relative stereo) [Compound 60] : reported IC50 = 1000 to 10000 nM

Record summary for CCN1CC[C@H]2CC[C@@H](C(=O)N3C[C@@H](C#N)[C@H](c4ccccc4)C3)N2C(=O)[C@@H](NC(=O)c2cc3cc([C@H](F)P(=O)(O)O)ccc3s2)C1 (single isomer, unassigned) [Compound 232] : reported IC50 = 100 to 1000 nM

Record summary for COc1ccc(N(C)C(=O)[C@@H]2CC[C@@H]3CCN(C(C)=O)C[C@H](NC(=O)c4cc5cc(C(F)(F)P(=O)(O)O)ccc5[nH]4)C(=O)N32)cc1 [Compound 166] : reported IC50 = 1000 to 10000 nM

---

biological target: Recombinant STAT3 protein (STAT3(G127-I722)) (Homo sapiens); construct: Recombinant STAT3 protein (STAT3(G127-I722)); assay: STAT3 Fluorescence Polarization (FP) Assay; settings: STAT3(G127-I722) 25 nM, probe 5-FAM-GpYLPQTV-NH2 2 nM, 45-minute incubation
attribute measured: IC50

Use the examples below as a reference point.
CC(=O)N1CC[C@H]2CC[C@@H](C(=O)N3CC[C@@H](c4ccccc4)[C@H](C#N)C3)N2C(=O)[C@@H](NC(=O)c2cc3cc(C(F)(F)P(=O)(O)O)ccc3s2)C1 (relative stereo) : 1 to 10 µM
Cc1ccc2onc(C(=O)N3CC[C@H]4CC[C@@H](C(=O)N5CCN(c6nsc7ccccc67)CC5)N4C(=O)[C@@H](NC(=O)c4ccc5ccc(C(F)P(=O)(O)O)cc5c4)C3)c2c1 (some centres unmarked) : 1 to 10 µM
O=C(N[C@H]1CN(C(=O)c2cc3ncccn3n2)CC[C@H]2CC[C@@H](C(=O)N3CCOCC3)N2C1=O)c1ccc2ccc(C(F)P(=O)(O)O)cc2c1 (some centres unmarked) : > 10 µM
Cc1ccc2onc(C(=O)N3CC[C@H]4CC[C@@H](C(=O)N5C[C@@H](C)O[C@@H](C)C5)N4C(=O)[C@@H](NC(=O)c4ccc5ccc(C(F)P(=O)(O)O)cc5c4)C3)c2c1 (some centres unmarked) : > 10 µM
CC(=O)N1CC[C@H]2CC[C@@H](C(=O)Nc3ccc4nccn4c3)N2C(=O)[C@@H](NC(=O)c2cc3cc(C(F)(F)P(=O)(O)O)ccc3s2)C1 : 1 to 10 µM

Assay Recombinant STAT3 protein (STAT3(G127-I722)) (Homo sapiens), sample CC(=O)N1CC[C@H]2CC[C@@H](C(=O)N3CC(c4ccccc4)C3)N2C(=O)[C@@H](NC(=O)c2cc3cc(C(F)(F)P(=O)(O)O)ccc3[nH]2)C1 , IC50 read: 0.1 to 1 µM

---

Target: Recombinant STAT6 protein (STAT6(W123-T658)) (Homo sapiens)
Construct: Recombinant STAT6 protein (STAT6(W123-T658))
Sequence (P42226 123-658): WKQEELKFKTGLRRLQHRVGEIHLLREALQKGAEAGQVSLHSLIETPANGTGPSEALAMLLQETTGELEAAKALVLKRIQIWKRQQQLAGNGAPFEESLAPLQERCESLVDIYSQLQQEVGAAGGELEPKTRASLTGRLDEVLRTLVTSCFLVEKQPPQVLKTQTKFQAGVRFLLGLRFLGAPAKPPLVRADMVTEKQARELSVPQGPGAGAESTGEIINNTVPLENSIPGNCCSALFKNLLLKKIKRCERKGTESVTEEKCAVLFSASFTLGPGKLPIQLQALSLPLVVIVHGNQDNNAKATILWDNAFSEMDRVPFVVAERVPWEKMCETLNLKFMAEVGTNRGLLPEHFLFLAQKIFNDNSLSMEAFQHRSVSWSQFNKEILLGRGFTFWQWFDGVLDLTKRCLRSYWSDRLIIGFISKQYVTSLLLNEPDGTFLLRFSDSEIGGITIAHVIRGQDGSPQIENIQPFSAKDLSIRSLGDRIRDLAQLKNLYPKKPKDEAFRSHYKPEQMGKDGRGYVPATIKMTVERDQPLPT
Assay: STAT6 Fluorescence Polarization (FP) Assay
Conditions: STAT6(W123-T658) 250 nM, probe 5-FAM-ApYKPFQDLI-NH2 2 nM, 45-minute incubation
Method: STAT6 Fluorescence Polarization (FP) Assay An FP assay was developed to determine IC50 values for test substances. […] Reaction components were mixed, and FP was measured after 45-minute incubation at room temperature using a Tecan Spark multimode plate reader. FP signal (mP) was plotted against the log concentration of the test substances and IC50 values were calculated by nonlinear regression analysis using GraphPad Prism software. […]
Recorded IC50 values for a group of compounds are listed next.

Use the examples below as a reference point.
CN(C)C(=O)[C@@H]1CC[C@@H]2CCN(c3ccccc3)C[C@H](NC(=O)c3cc4cc(C(F)(F)P(=O)(O)O)ccc4[nH]3)C(=O)N21 : 0.3 to 3 µM
CC(=O)N1CC[C@H]2CC[C@@H](C(=O)N3C[C@H](C#N)C[C@H]3c3ccccc3)N2C(=O)[C@@H](NC(=O)c2cc3cc(C(F)(F)P(=O)(O)O)ccc3s2)C1 (relative stereo) : 0.3 to 3 µM

Record summary for CC(=O)N1CC[C@H]2CC[C@@H](C(=O)Nc3ccc4[nH]ncc4c3)N2C(=O)[C@@H](NC(=O)c2cc3cc(C(F)(F)P(=O)(O)O)ccc3s2)C1 : reported IC50 = 0.3 to 3 µM

Record summary for CC(=O)N1CC[C@H]2CC[C@@H](C(=O)N3CCCC3Cc3ccccc3F)N2C(=O)[C@@H](NC(=O)c2cc3cc(C(F)(F)P(=O)(O)O)ccc3[nH]2)C1 (stereo partly drawn) : reported IC50 = 0.3 to 3 µM

Record summary for CC(=O)N1CC[C@H]2CC[C@@H](C(=O)Nc3ccc4ccccc4c3)N2C(=O)[C@@H](NC(=O)c2cc3cc(C(F)(F)P(=O)(O)O)ccc3s2)C1 : reported IC50 = 0.3 to 3 µM

Record summary for CN(C)C(=O)[C@@H]1CC[C@@H]2CCN(Cc3ccccc3)C[C@H](NC(=O)c3cc4cc(C(F)(F)P(=O)(O)O)ccc4[nH]3)C(=O)N21 : reported IC50 = 3 to 30 µM
